This collection of values is drawn from ChEMBL document CHEMBL4138240.

- PROTOCOL NOTES: Inhibition of Norovirus 3CL protease using Edans-DFHLQ/GP-Dabcyl as substrate preincubated for 30 mins followed by substrate addition measured for 1 hr by FRET assay
PARAMETER: IC50 (µM)
Answer with a number only, understood to be in µM.

{"COMPOUND": "CC(C)C[C@@H](C(=O)N[C@@H](C[C@@H]1CCNC1=O)C(O)S(=O)(=O)O)N1CC(Cc2cccc(Cl)c2)OC1=O (stereo in doubt; 12A)", "PARAMETER": "IC50", "REPORTED VALUE": 8.2}
{"COMPOUND": "CC(C)C[C@@H](C(=O)N[C@H](C=O)C[C@@H]1CCNC1=O)N1CC(Cc2cccc(Cl)c2)OC1=O (stereo in doubt; 8B)", "PARAMETER": "IC50", "REPORTED VALUE": 15.3}
{"COMPOUND": "CC(C)C[C@@H](C(=O)N[C@@H](C[C@@H]1CCNC1=O)C(O)S(=O)(=O)O)N1CC(Cc2cccc(Cl)c2)OC1=O (stereo in doubt; 12B)", "PARAMETER": "IC50", "REPORTED VALUE": 13.2}
{"COMPOUND": "CC(C)C[C@@H](C(=O)N[C@H](C=O)C[C@@H]1CCNC1=O)N1CC(COc2cccc(Cl)c2)OC1=O (mixture of isomers)", "PARAMETER": "IC50", "REPORTED VALUE": 3.8}
{"COMPOUND": "O=C1NCC[C@H]1C[C@H](NC(=O)[C@H](CC1CCCCC1)N1CC(Cc2cccc(Cl)c2)OC1=O)C(O)S(=O)(=O)O (mixture of isomers)", "PARAMETER": "IC50", "REPORTED VALUE": 15.1}

Suppose we examine the compound CC(C)C[C@@H](C(=O)N[C@@H](C[C@@H]1CCNC1=O)C(O)S(=O)(=O)O)N1CC(COc2cccc(Cl)c2)OC1=O (mixture of isomers) ; what IC50 value has been reported? 8.5

Suppose we examine the compound CC(C)C[C@@H](C(=O)N[C@@H](C[C@@H]1CCNC1=O)C(O)S(=O)(=O)O)N1CC(COCc2cccc(Cl)c2)OC1=O (mixture of isomers) ; what IC50 value has been reported? 10.6

----------
- PROTOCOL NOTES: Cytotoxicity against human HG23 cells after 72 hrs by crystal violet staining-based assay
- Format: cell-based
PARAMETER: CC50 at 72 h

Guide cases for CC50 at 72 h, answers given:
{"COMPOUND": "CC(C)C[C@@H](C(=O)N[C@H](C=O)C[C@@H]1CCNC1=O)N1CC(COc2cccc(Cl)c2)OC1=O (mixture of isomers)", "REPORTED VALUE": "> 100 µM"}
{"COMPOUND": "CC(C)C[C@@H](C(=O)N[C@@H](C[C@@H]1CCNC1=O)C(O)S(=O)(=O)O)N1CC(Cc2cccc(Cl)c2)OC1=O (stereo in doubt; 12B)", "REPORTED VALUE": "> 100 µM"}
{"COMPOUND": "CC(C)C[C@@H](C(=O)N[C@H](C=O)C[C@@H]1CCNC1=O)N1CC(Cc2cccc(Cl)c2)OC1=O (stereo in doubt; 8B)", "REPORTED VALUE": "> 100 µM"}
{"COMPOUND": "O=C[C@H](C[C@@H]1CCNC1=O)NC(=O)[C@H](CC1CCCCC1)N1CC(Cc2cccc(Cl)c2)OC1=O (mixture of isomers)", "REPORTED VALUE": "55.2 µM"}
{"COMPOUND": "O=C1NCC[C@H]1C[C@H](NC(=O)[C@H](CC1CCCCC1)N1CC(Cc2cccc(Cl)c2)OC1=O)C(O)S(=O)(=O)O (mixture of isomers)", "REPORTED VALUE": "46.1 µM"}
{"COMPOUND": "CC(C)C[C@@H](C(=O)N[C@@H](C[C@@H]1CCNC1=O)C(O)S(=O)(=O)O)N1CC(COc2cccc(Cl)c2)OC1=O (mixture of isomers)", "REPORTED VALUE": "> 100 µM"}

// switching to the query compound
Suppose we examine the compound CC(C)C[C@@H](C(=O)N[C@@H](C[C@@H]1CCNC1=O)C(O)S(=O)(=O)O)N1CC(COCc2cccc(Cl)c2)OC1=O (mixture of isomers) ; what CC50 at 72 h value has been reported? > 100 µM
